src = the supplement of paper PMC10567573

B1: RSPH3 (parent)
chain: FIPAKTGKDVATQILEGELFDFDL

# Variants of: B1
# Experiment Notes: protein stability index of a GFP-peptide fusion (GPS, HEK-293T) (PSI 1-6); higher = more stable;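 note: lentivirally expressed fusions sorted by FACS into six bins by GFP to DsRed ratio, PSI derived from sequencing read proportions per bin multiplied by bin number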
# Measurement Context: c terminus: a fixed tail appended
Experimental Endpoint: protein stability index

# Sequence Input, protein stability index
data = [
    ("FIPAKTGKDVATQILEGSLFDFDL [E18S]", 2),
]

Task item: Data request, read-out protein stability index, for FIPAKTGKDVATQILEGEIFDFDL [L19I]
Reply: 2.05

Task item: Data request, read-out protein stability index, for FIPAKTGKDVATQHLEGELFDFDL [I14H]
Reply: 2.05
